Each item that follows carries a reported EC50.
Molecular target: T1, extracellular domain of human CD73 protein (CD73-ECD), C-terminus polyhistidine-tagged (UniProt P21589 27-547)
T1 chain: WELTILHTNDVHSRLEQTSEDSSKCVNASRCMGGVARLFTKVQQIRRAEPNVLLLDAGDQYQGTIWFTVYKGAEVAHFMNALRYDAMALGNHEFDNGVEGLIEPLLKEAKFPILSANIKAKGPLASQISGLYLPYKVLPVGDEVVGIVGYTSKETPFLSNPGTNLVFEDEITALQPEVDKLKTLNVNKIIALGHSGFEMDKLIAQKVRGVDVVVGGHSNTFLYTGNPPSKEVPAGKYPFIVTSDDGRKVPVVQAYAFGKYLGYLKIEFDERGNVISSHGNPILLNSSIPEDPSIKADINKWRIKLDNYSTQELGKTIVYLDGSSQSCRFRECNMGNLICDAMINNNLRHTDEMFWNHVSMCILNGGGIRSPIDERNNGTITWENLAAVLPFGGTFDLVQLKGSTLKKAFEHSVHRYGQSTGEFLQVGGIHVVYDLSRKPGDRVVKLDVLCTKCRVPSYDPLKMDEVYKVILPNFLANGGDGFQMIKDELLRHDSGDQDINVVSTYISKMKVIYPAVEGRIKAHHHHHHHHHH
Assay: ELISA
Please respond with the number in nM and leave the unit unwritten.

INSERT INTO measurements (binder, measured_endpoint, numeric_result) VALUES
  ('mAb002c-VH-NA (antibody, V domains shown) VH: QVQLQQPGAELVKPGASVRLSCKASGYTLTSYWMHWVKKRPGQGLEWIGEINPSNARSNYNEKFKSKATLTVDRSSSTVYMQLGSLTSEDSAVYYCARRGVSGNYFDYWGQGTTLTVSS VL: DIKMTQSPSSMYASLGERVTMTCKASQDINTYLSWFQQKPGKSPKTLIYRSNILVDGVPSRFSGSRSGQDYYLTITSLEYEDMGIYYCLQYDEFPYTFGGGTKLELK', 'EC50', 0.051),
  ('mAb001c-VK-SGS (antibody, V domains shown) VH: QVQLQQSGPELVKPGASVRISCKTSGYTFTNYYIYWVKQRPGQGLEWIGWIYPGNLNIKYNEKFKGKSTLTADKSSSTAFMQLSSLTSEDSAVYFCARDDNYAWFAYWGQGTLVTVSS VL: DIVMTQSHKFMSTSIGDRVSITCKASQDVSTAVAWYQQKPGQSPKLLIYWTNTRHTGVPDRFTGSGSGTEHTLTISSVQAEDLALYYCQQHYSTPFTFGSGTTLEIK', 'EC50', 0.073),
  ('mAb002c-VK-SG (antibody, V domains shown) VH: QVQLQQPGAELVKPGASVRLSCKASGYTLTSYWMHWVKKRPGQGLEWIGEINPSNGRSNYNEKFKSKATLTVDRSSSTVYMQLGSLTSEDSAVYYCARRGVSGNYFDYWGQGTTLTVSS VL: DIKMTQSPSSMYASLGERVTMTCKASQDINTYLSWFQQKPGKSPKTLIYRSNILVSGVPSRFSGSRSGQDYYLTITSLEYEDMGIYYCLQYDEFPYTFGGGTKLELK', 'EC50', 0.063);

[ask] Dear colleague, please send me the reported EC50 for mAb002c-VH-QG (antibody, V domains shown) VH: QVQLQQPGAELVKPGASVRLSCKASGYTLTSYWMHWVKKRPGQGLEWIGEINPSQGRSNYNEKFKSKATLTVDRSSSTVYMQLGSLTSEDSAVYYCARRGVSGNYFDYWGQGTTLTVSS VL: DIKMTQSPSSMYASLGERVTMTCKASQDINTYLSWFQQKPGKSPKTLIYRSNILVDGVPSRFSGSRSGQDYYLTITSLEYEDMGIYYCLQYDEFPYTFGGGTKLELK when you can.
[reply] 0.05

Entry source: patent US20210024646A1
